Target: T1, EsCas13d, nuclease-dead (Eubacterium siraeum, UniProt B0MS50, R295A;H300A;R849A;H854A)
T1 sequence: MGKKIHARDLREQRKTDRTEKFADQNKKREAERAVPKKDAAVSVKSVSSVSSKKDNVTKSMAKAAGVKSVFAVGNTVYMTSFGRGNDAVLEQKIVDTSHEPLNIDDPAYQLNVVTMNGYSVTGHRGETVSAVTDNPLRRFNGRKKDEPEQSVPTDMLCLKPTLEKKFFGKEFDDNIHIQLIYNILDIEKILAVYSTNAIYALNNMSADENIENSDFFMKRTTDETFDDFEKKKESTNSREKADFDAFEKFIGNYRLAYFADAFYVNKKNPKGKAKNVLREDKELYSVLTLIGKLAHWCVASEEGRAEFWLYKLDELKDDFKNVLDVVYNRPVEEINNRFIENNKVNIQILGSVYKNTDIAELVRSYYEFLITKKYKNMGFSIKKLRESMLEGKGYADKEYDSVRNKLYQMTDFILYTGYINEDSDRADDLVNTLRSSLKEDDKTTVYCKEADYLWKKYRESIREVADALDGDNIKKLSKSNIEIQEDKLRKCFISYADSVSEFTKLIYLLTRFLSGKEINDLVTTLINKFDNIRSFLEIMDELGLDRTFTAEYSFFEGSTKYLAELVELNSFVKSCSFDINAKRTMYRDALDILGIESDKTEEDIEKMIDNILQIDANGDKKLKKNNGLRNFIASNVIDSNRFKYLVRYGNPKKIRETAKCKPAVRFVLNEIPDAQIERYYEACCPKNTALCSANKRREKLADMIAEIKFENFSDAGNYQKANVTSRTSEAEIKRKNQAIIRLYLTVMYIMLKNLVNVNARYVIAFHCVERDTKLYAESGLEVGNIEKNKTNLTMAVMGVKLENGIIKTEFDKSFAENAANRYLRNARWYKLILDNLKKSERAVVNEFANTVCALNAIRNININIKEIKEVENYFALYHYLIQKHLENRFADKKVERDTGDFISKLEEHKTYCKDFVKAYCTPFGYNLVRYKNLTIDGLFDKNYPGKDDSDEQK
Assay: crRNA (strand 1, pre-loaded); Mg2+; 40 mM Tris-HCl pH 7.5, 150 mM NaCl, 6 mM MgCl2, 1 mM DTT, 0.1% Tween-20, 0.2 mg/ml BSA; 25 C; 10 min per concentration, then washed
Settings: tags: His6-TwinStrep-SUMO cleaved; N-terminal SNAP kept (SNAP-Surface 488); label: 3' end held by stalled T7 RNA polymerase
measure name: Kd (nM)

- binder: "target 2 MT 5'PFS CUA 3'PFS UUC (mixed) RNA 1: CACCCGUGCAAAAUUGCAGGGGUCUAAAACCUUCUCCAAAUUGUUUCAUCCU RNA 2: GGGAAUGGAUCCACAUCUACGAAUUCCUAAGGAUGAAACAAUUUGGAGAAGUUCAGAUCGGAAGAGCACACGU"
  measure name: "Kd"
  output unit: "nM"
  reading: 3.1
- binder: "target 1 C6A,G17U (mixed) RNA 1: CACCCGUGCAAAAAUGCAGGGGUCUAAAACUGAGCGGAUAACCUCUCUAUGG RNA 2: GGGAAUGGAUCCACAUCUACGAAUUCGUACCAUAUAGAGGUUAUCAGCUCACCGAGAUCGGAAGAGCACACGU"
  measure name: "Kd"
  output unit: "nM"
  reading: 18.7
- binder: "target 1 insA 3' of 17,insC 3' of 11 (mixed) RNA 1: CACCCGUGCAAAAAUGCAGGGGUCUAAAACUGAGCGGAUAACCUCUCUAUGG RNA 2: GGGAAUGGAUCCACAUCUACGAAUUCGUACCAUAGAAGAGGUCUAUCCGCUCACCGAGAUCGGAAGAGCACACGU"
  measure name: "Kd"
  output unit: "nM"
  reading: 51
